tested on: U-251; experiment: Cytotoxicity against human U251 cells assessed as inhibition of cell proliferation by sulforhodamine B assay; assay type: functional, cell-based
pIC50: −log10 of the molar value.
Listing: pIC50 of selected molecules

molecule | pIC50
CC(C)[C@]12O[C@H]1[C@@H]1O[C@]13[C@]1(O[C@H]1C=C1C4=C(CC[C@@]13C)C(=O)OC4)[C@H]2O | 5.30
CC(C)[C@]12O[C@H]1[C@@H]1O[C@]13[C@]1(O[C@H]1C[C@H]1C4=C(CC[C@@]13C)C(=O)OC4)[C@@H]2O [TRIPTOLIDE] | 7.48
CC(C)[C@]12O[C@H]1[C@@H]1O[C@@]13[C@@]1(C)CCC4=C(COC4=O)[C@]1(O)C[C@@H]1O[C@@]13C2=O | 5.99
